test: Ratio of ED50 of taxol to ED50 from cytotoxicity against B16 melanoma cell lines; type: functional
Result type: Ratio

Some solved cases for reference:
| Molecule | Result type | Recorded measurement |
| --- | --- | --- |
| CC(=O)O[C@H]1C(=O)[C@@]2(C)[C@H]([C@H](OC(=O)c3ccccc3)[C@]3(O)C[C@H](OC(=O)[C@H](O)[C@@H](NC(=O)c4ccccc4)c4ccccc4)C(C)=C1C3(C)C)[C@]1(OC(C)=O)CO[C@@H]1C[C@@H]2O | Ratio | 1 |
| CC(=O)O[C@H]1C(=O)[C@@]2(C)[C@H]([C@H](OC(=O)c3ccccc3)[C@]3(O)C[C@H](OC(=O)[C@H](O)[C@@H](NC(=O)c4ccccc4)c4ccc(Cl)cc4)C(C)=C1C3(C)C)[C@]1(OC(C)=O)CO[C@@H]1C[C@@H]2O | Ratio | 2.2 |

Name the recorded Ratio of the item O=C(N[C@@H](c1ccccc1)[C@@H](O)C(=O)O)c1ccccc1 (relative stereo) in your answer. >360

Origin of measurements: ChEMBL document CHEMBL1125352
